Source of measurements: patent US7781421B2

- tested.target: GABAA receptor ([35S]-TBPS binding site, rat brain cortical membranes)
- test.details: Displacement of [35S]-TBPS binding, rat brain cortical membranes
- condition.description: 5 μM GABA, 2 nM [35S]-TBPS; ± standard error of the means
Record form. Attribute: IC50. Fill in for each entry.
The reply should be a number in nM, with the unit left off.

What measured IC50 goes with CC12CCC(O)CC1CCC1C2CCC23CC4OC4C(=O)C2CCC13 (stereo not drawn) [Compound 19b] ? 313

C[C@]12CC[C@@H](O)C[C@@H]1CCC1C3CC[C@@H]4CC[C@@H](C#N)C[C@]34CCC12 (stereo partly drawn) [Compound 49] , same question. 574

Then CC(=O)C1CCCC23CCC4C(CCC5CC(O)CCC54C)C2CCC13 (stereo not drawn) [Compound 80] ? 2060

Let us now turn to C[C@]12CC[C@@H](O)C[C@@H]1CCC1C3CC[C@@H]4[C@@]5(CCC[C@]34CCC12)CO5 (stereo partly drawn) [Compound 73] 1290

One more compound: COC1CCCC23CCC4C(CCC5CC(O)CCC54C)C2CCC13 (stereo not drawn) [Compound 69] 353

Try this compound too: CC12CCC(O)CC1CCC1C2CCC23C(=O)CCCC2CCC13 (stereo not drawn) [Compound 5a] 301

What do you get for CC12CCC(O)CC1CCC1C2CCC23CCCC(=CC#N)C2CCC13 (stereo not drawn) [Compound 64] ? 1080

What about this compound? CC12CCC(O)CC1CCC1C2CCC23CCC=CC2CCC13 (stereo not drawn) [Compound 13a] 569

Let us now turn to CC12CCC(O)CC1CCC1C2CCC23CC(=O)C=CC2CCC13 (stereo not drawn) [Compound 22c] 268
